measured-on: human B1R receptor (bradykinin 1 receptor) (Homo sapiens)
Construct: host or cells: CHO K1 cells (hB1R cells)
assay-explanation: FLIPR Ca2+ assay (Fluo-4) on CHO K1 cells stably transfected with the human B1R gene; % activation and % inhibition at 10 μM
Format: cell-based
details: CHO-K1, test substance 10 μM; CHO K1 hB1R cells; Ca2+ inflow after 0.5 nM Lys-Des-Arg9-bradykinin; read-out: B1R antagonism, human [10 μM] % inhibition
Excerpt: The agonistic or antagonistic action of substances can be quantified on the bradykinin receptor 1 (B1R) of the species human and rat with ectopically expressing cell lines (CHO K1 cells) and with the aid of a Ca^2+-sensitive dye (Fluo-4) using a fluorescent imaging plate reader (FLIPR). […] The agonistic or antagonistic action of substances can be determined on the bradykinin 1 receptor (B1R) of the human and rat species with the following assay. […]
measurement-label: inhibition at 10 µM (%)

Problem: Name the reported inhibition at 10 µM value associated with the compound O=C(COCC1CCCN1S(=O)(=O)c1cc(Cl)sc1Cl)N1CCC(O)(c2ccccc2)CC1 (stereo not shown) [Example 225]
Result: 43.1

A. COc1cc(C)c(S(=O)(=O)N2CCC(OCCC(=O)N3CCC(O)(c4ccccc4)CC3)C2)c(C)c1 (stereo not shown) [Example 188]
B. O=C(COC1CCN(S(=O)(=O)c2ccccc2)CC1)N1CCC(O)(c2cccnc2)CC1 [Example 46]
Problem: Between item A and item B , which reported inhibition at 10 µM is smaller? Write down the label of the entry you select.
Result: B
(B: -3.51%, A: 52.7%)

----------
measured-on: human B1R receptor (bradykinin 1 receptor) (Homo sapiens)
Construct: host or cells: CHO K1 cells (hB1R cells)
assay-explanation: FLIPR Ca2+ assay (Fluo-4) on CHO K1 cells stably transfected with the human B1R gene; % activation and % inhibition at 10 μM
Format: cell-based
details: CHO-K1, test substance 10 μM; CHO K1 hB1R cells; Ca2+ inflow after 0.5 nM Lys-Des-Arg9-bradykinin; read-out: B1R antagonism, human [10 μM] % inhibition
measurement-label: inhibition at 10 µM (%)

Problem: Identify the measured inhibition at 10 µM of COc1cc(C)c(S(=O)(=O)N(CCOCC(=O)N2CCC(O)(Cc3ccccc3)CC2)CC2CC2)c(C)c1C [Example 207] for human B1R receptor (bradykinin 1 receptor) (Homo sapiens).
Result: 94.2

Problem: Would you mind doing O=C(COCC1CCCCN1S(=O)(=O)c1ccc(Cl)c(Cl)c1)N1CCC(O)(c2cccnc2)CC1 (stereo not shown) [Example 12] as well?
Result: 55.1

P. COc1ccc(S(=O)(=O)N2Cc3ccccc3C[C@H]2COCC(=O)N2CCC(O)(c3cccnc3)CC2)cc1 [Example 134]
Q. O=C(COCC1Cc2ccccc2CN1S(=O)(=O)c1ccccc1)N1CCC(O)(Cc2ccccc2)CC1 (stereo not shown) [Example 77]
Problem: Sort P and Q by inhibition at 10 µM descending and give the first. Write down the label of the entry you select.
Result: P

----------
measured-on: human B1R receptor (bradykinin 1 receptor) (Homo sapiens, UniProt P46663)
Construct: host or cells: CHO K1 cells (hB1R cells)
Sequence (P46663 1-353): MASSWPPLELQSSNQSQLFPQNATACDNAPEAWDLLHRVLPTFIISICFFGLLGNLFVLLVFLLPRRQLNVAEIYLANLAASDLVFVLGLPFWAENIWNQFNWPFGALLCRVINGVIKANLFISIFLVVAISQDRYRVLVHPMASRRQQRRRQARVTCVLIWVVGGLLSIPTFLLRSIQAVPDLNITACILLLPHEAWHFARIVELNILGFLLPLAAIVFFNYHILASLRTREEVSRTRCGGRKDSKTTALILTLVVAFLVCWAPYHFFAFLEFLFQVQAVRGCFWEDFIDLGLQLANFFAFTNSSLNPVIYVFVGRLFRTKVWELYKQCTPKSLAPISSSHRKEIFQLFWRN
assay-explanation: FLIPR Ca2+ assay (Fluo-4) on CHO K1 cells stably transfected with the human B1R gene; % activation and % inhibition at 10 μM
Type: cell-based
details: CHO-K1, test substance 10 μM; CHO K1 hB1R cells; Ca2+ inflow after 0.5 nM Lys-Des-Arg9-bradykinin; read-out: B1R antagonism, human [10 μM] % inhibition
Source text: The agonistic or antagonistic action of substances can be quantified on the bradykinin receptor 1 (B1R) of the species human and rat with ectopically expressing cell lines (CHO K1 cells) and with the aid of a Ca^2+-sensitive dye (Fluo-4) using a fluorescent imaging plate reader (FLIPR). […] The agonistic or antagonistic action of substances can be determined on the bradykinin 1 receptor (B1R) of the human and rat species with the following assay. […]
measurement-label: inhibition at 10 µM (%)

Previously resolved entries follow.
Problem: Name the reported inhibition at 10 µM value associated with the compound Cc1cc(C)c(S(=O)(=O)N2CCCCC2COCC(=O)N2CCC(O)(c3ccccn3)CC2)c(C)c1 (stereo not shown)
Result: 104

Problem: Would you mind doing O=C(COCCN1CCN(S(=O)(=O)c2ccccc2)CC1)N1CCC(O)(Cc2ccccc2)CC1 as well?
Result: 6.63

a. COc1ccc(S(=O)(=O)N2CCCCC2COCC(=O)N2CCC(O)(Cc3ccccc3)CC2)c(OC)c1 (stereo not shown)
b. COc1cc(C)c(S(=O)(=O)N2CCCC(OCCC(=O)N3CCC(O)(c4ccc(Cl)cc4)CC3)C2)c(C)c1 (stereo not shown)
Problem: Sort a and b by inhibition at 10 µM descending and give the first. Write down the label of the entry you select.
Result: b

Cited source for all entries: patent US8580965B2
